What growth inhibition was measured for each of the following?
# experiment_description: NCI Yeast Anticancer Drug Screen. Data for the rad50EPP+ strain (AID 151);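 note: 0% = growth of vehicle-treated control cultures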
# condition_parameters: S. cerevisiae rad50 mutant strain, at 33.0 µM, active compounds read high
About 79,000 compounds went through this panel and 15% of them were active in at least one assay; those are over-represented in the sample as a whole.
Give bare numbers, in %.

I have 3 compounds here; please give me growth inhibition for each one.
1. C=C(CCCO)[C@@H]1CC[C@@](C)(O)[C@H]1C
2. COc1cccc(C(c2cc3c(cc2O)OCO3)N2CCOCC2)c1OC (stereo not drawn)
3. N#C/C(=C1C=C(Br)/C(=N\O)C=C\1Cl)c1cccc2ccccc12

-- reply
[-38, 11, 55]

* * *

# experiment_description: NCI Yeast Anticancer Drug Screen. Data for the bub3 strain (AID 167)
# condition_parameters: S. cerevisiae bub3 mutant strain, at 5.0 µM (retest, dose inferred, filed as 0.5), active compounds read high
About 79,000 compounds went through this panel and 15% of them were active in at least one assay; those are over-represented in the sample as a whole.
measured_metric: growth inhibition (%)
Answers are plain numbers, in %.

See these solved cases before continuing.
> print(dat)
                                   compound  endpoint.result
1   COC(=O)/C=C1/OC(c2ccc(Br)cc2)=C(Br)C1=O               32
2  Cc1ccc2c(ccc(/C=C/c3ccc(O)c4ncccc34)[n+]2C)c1               10
3  N#Cc1sc2c(c1OC(=O)c1ccco1)c(=O)n(-c1ccccc1)c(=S)n2-c1ccccc1               13

I have 2 compounds here; please give me growth inhibition for each one.
1. Cc1ccc(I)cc1N=C=S
2. COc1ccc(N=N/C(=N\NC(=O)c2cc(Br)ccc2O)c2ccc(N(CCC#N)CCC#N)cc2OC)cc1

-- reply
1. 7
2. 19

I have 2 compounds here; please give me growth inhibition for each one.
1. Oc1ccc(Br)cc1C=NC1CCCCC1
2. Cc1ccc(CNc2ccc(Br)cc2)cc1

-- reply
46
32

I have 2 compounds here; please give me growth inhibition for each one.
1. OCCN(CCO)c1ccc2c(c1)Cc1ccccc1-2
2. Nc1nc2c(c(=O)[nH]1)NC(CCNc1ccc(C(=O)O)cc1)CN2 (centres undefined)

-- reply
2
-13

I have 4 compounds here; please give me growth inhibition for each one.
1. Clc1c(Cl)c(Cl)c2n[nH]nc2c1Cl
2. C/C=C/[P+](c1ccccc1)(c1ccccc1)c1ccccc1
3. COC(=O)CSc1nnc(CSc2ccc(Cl)cc2)n1-c1ccccc1
4. CCc1[nH]nc(C(N)=O)c1N=NN(C)C

-- reply
[-11, 25, 7, -66]

I have 6 compounds here; please give me growth inhibition for each one.
1. O=C1c2ccccc2CCC1(Br)Br
2. CC(=O)C1=C(C)O/C(=C/c2cccc(Cl)c2)C1=O
3. Cc1cc(Cl)nc2nc(Cl)c(N)cc12
4. CCC(=O)N(c1ccccc1)C(C)CN1CCC(O)(c2cccc(C(F)(F)F)c2)CC1 (centres undefined)
5. O=S(=O)(c1cc(Cl)ccc1O)c1cc(Cl)ccc1O
6. COc1ccc2c(c1)[nH]c1c(/C=C/c3ccccc3)nccc12

-- reply
61
5
-24
4
48
-24

I have 4 compounds here; please give me growth inhibition for each one.
1. O=c1[nH]c2ccccc2c2nc3ccccc3n12
2. CCOC(=O)C(NC(=O)CC)(N1CCN(c2cc3c(cc2F)c(=O)c(C(=O)O)cn3C2CC2)CC1)C(F)(F)F (centres undefined)
3. OCCNCCOc1ccc(/C(=C(/Cl)c2ccccc2)c2ccccc2)cc1
4. CC1OC(OC2CCCc3c(O)c4c(c(O)c32)C(=O)c2ccccc2C4=O)CC(N)C1O (centres undefined)

-- reply
1: 45; 2: -14; 3: 32; 4: 2

-- ask I'd like to know its growth inhibition. The compound in question is O=S1(=O)c2ccccc2N=C(c2ccccc2Cl)CC1c1ccc(F)cc1 (centres undefined)
-- reply -20
